Target Entity: Bromodomain testis-specific protein (Homo sapiens)
Condition Details: dose 200.0 µM, time 30.0 min
Consider the cut-off 2 °C. If the recorded ΔTm is strictly smaller, the label is 1.0; if not, the label is 0.0.

Reference set (3 entries):
Data request: Item CO[C@H]1CC[C@H](n2c([C@@H]3CCCC(=O)N3c3ccc(F)c(F)c3)nc3cc(-c4c(C)noc4C)ccc32)CC1 [INOBRODIB] : ΔTm beneath 2 °C, strictly?
Data returned: 0.0

Data request: Item `C[C@@H]1CC(=O)Nc2cccc(-c3ccc4c(c3)c(-c3cnn(C)c3)nn4C)c2N1` : ΔTm beneath 2 °C, strictly?
Data returned: 1.0

Data request: Item `CC(=O)c1cc(C(=O)Nc2cc(CO)cc(-c3cnn(C)c3)c2F)c2cc(N)ccn12` : ΔTm beneath 2 °C, strictly?
Data returned: 1.0

***
Data request: Item CC(=O)c1cc(C(=O)Nc2cc(C(C)O)cc(-c3cnn(C4CC4)c3)c2F)c2cc(N)ccn12 (stereo unspecified) : ΔTm beneath 2 °C, strictly?
Data returned: 1.0

Data request: Item `CC(=O)c1cc(C(=O)Nc2cc(CO)cc(-c3cnn(C4CC4)c3)c2F)c2cc(OC(=O)N(C)C)ccn12` : ΔTm beneath 2 °C, strictly?
Data returned: 1.0

Data request: Item COc1ccn2c(C(C)=O)cc(C(=O)Nc3cc(C(C)O)cc(-c4cnn(C5CC5)c4)c3F)c2c1 (stereo unspecified) : ΔTm beneath 2 °C, strictly?
Data returned: 1.0

----------
Target Entity: Bromodomain-containing protein 3 (Homo sapiens)
Sequence (Q15059 2-726 limits assumed): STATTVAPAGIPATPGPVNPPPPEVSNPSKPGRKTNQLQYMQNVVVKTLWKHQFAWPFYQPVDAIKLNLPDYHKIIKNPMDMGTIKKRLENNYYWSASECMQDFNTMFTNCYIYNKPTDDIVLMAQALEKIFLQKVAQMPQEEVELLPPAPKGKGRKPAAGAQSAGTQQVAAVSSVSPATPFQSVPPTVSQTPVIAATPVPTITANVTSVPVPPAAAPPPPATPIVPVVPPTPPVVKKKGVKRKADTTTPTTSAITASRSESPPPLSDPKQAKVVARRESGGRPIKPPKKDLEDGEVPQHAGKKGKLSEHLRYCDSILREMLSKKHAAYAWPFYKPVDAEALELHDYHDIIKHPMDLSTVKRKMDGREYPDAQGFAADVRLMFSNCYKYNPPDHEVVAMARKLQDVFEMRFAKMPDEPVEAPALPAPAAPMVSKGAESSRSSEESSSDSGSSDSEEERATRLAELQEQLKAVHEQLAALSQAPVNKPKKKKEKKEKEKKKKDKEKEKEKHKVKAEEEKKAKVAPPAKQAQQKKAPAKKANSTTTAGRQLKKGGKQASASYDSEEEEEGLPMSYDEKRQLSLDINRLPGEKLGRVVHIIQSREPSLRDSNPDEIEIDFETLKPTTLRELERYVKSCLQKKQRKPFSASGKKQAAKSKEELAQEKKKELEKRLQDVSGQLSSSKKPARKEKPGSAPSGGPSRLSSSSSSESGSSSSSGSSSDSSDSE
Condition Details: dose 200.0 µM, time 30.0 min
Assign ΔTm to each entry below.
One number for each entry, in °C.

The value of ΔTm measured for the molecule `CC(=O)c1cc(C(=O)Nc2cc(CO)cc(-c3cnn(C)c3)c2F)c2cc(N)ccn12` turned out to be 2.5

The value of ΔTm measured for the molecule `C[C@@H]1CC(=O)Nc2cccc(-c3ccc4c(c3)c(-c3cnn(C)c3)nn4C)c2N1` turned out to be 1.5

// for each molecule in input: emit ΔTm
1. CC(=O)c1cc(C(=O)Nc2cc(C(C)O)cc(-c3cnn(C4CC4)c3)c2F)c2cc(N)ccn12 (stereo unspecified)
2. CC(=O)c1cc(C(=O)Nc2cc(CO)cc(-c3cnn(C4CC4)c3)c2F)c2cc(OC(=O)N(C)C)ccn12
3. COc1ccn2c(C(C)=O)cc(C(=O)Nc3cc(C(C)O)cc(-c4cnn(C5CC5)c4)c3F)c2c1 (stereo unspecified)
4. CO[C@H]1CC[C@H](n2c([C@@H]3CCCC(=O)N3c3ccc(F)c(F)c3)nc3cc(-c4c(C)noc4C)ccc32)CC1

Data returned:
0.5
0
-1.3
5.5

----------
Experiment: Apparent permeability across basolateral to apical side in human Caco-2 cells assessed as drug recovery at 10 uM measured after 2 hrs by LC-MS/MS analysis
Format: ADME, cell-based
Condition Details: read-out: Drug recovery
Attribute Measured: recovery at 2 h, 10 µM (%)
One number for each entry, in %.

// below: answered compounds
The value of recovery at 2 h, 10 µM measured for the compound CC(C)NCC(O)COc1ccc(CC(N)=O)cc1 (stereo not given) [ATENOLOL] turned out to be 94.2

The value of recovery at 2 h, 10 µM measured for the compound `CC(=O)c1cc(C(=O)Nc2cc(CO)cc(-c3cnn(C4CC4)c3)c2F)c2cc(OC(=O)N(C)C)ccn12` turned out to be 95.8

// for each compound in input: emit recovery at 2 h, 10 µM
1. COc1ccn2c(C(C)=O)cc(C(=O)Nc3cc(C(C)O)cc(-c4cnn(C5CC5)c4)c3F)c2c1 (stereo not given)
2. C[C@H]1O[C@@H](O[C@H]2[C@@H](O)C[C@H](O[C@H]3[C@@H](O)C[C@H](O[C@H]4CC[C@@]5(C)[C@H](CC[C@@H]6[C@@H]5C[C@@H](O)[C@]5(C)[C@@H](C7=CC(=O)OC7)CC[C@]65O)C4)O[C@@H]3C)O[C@@H]2C)C[C@H](O)[C@@H]1O [DIGOXIN]
3. CC(C)NCC(O)COc1cccc2ccccc12 (stereo not given) [PROPRANOLOL]

Data returned:
1: 37.3; 2: 92.7; 3: 90.7

----------
Target Entity: CREB-binding protein (Homo sapiens)
Sequence (Q92793 whole entry, the tested form may be a part): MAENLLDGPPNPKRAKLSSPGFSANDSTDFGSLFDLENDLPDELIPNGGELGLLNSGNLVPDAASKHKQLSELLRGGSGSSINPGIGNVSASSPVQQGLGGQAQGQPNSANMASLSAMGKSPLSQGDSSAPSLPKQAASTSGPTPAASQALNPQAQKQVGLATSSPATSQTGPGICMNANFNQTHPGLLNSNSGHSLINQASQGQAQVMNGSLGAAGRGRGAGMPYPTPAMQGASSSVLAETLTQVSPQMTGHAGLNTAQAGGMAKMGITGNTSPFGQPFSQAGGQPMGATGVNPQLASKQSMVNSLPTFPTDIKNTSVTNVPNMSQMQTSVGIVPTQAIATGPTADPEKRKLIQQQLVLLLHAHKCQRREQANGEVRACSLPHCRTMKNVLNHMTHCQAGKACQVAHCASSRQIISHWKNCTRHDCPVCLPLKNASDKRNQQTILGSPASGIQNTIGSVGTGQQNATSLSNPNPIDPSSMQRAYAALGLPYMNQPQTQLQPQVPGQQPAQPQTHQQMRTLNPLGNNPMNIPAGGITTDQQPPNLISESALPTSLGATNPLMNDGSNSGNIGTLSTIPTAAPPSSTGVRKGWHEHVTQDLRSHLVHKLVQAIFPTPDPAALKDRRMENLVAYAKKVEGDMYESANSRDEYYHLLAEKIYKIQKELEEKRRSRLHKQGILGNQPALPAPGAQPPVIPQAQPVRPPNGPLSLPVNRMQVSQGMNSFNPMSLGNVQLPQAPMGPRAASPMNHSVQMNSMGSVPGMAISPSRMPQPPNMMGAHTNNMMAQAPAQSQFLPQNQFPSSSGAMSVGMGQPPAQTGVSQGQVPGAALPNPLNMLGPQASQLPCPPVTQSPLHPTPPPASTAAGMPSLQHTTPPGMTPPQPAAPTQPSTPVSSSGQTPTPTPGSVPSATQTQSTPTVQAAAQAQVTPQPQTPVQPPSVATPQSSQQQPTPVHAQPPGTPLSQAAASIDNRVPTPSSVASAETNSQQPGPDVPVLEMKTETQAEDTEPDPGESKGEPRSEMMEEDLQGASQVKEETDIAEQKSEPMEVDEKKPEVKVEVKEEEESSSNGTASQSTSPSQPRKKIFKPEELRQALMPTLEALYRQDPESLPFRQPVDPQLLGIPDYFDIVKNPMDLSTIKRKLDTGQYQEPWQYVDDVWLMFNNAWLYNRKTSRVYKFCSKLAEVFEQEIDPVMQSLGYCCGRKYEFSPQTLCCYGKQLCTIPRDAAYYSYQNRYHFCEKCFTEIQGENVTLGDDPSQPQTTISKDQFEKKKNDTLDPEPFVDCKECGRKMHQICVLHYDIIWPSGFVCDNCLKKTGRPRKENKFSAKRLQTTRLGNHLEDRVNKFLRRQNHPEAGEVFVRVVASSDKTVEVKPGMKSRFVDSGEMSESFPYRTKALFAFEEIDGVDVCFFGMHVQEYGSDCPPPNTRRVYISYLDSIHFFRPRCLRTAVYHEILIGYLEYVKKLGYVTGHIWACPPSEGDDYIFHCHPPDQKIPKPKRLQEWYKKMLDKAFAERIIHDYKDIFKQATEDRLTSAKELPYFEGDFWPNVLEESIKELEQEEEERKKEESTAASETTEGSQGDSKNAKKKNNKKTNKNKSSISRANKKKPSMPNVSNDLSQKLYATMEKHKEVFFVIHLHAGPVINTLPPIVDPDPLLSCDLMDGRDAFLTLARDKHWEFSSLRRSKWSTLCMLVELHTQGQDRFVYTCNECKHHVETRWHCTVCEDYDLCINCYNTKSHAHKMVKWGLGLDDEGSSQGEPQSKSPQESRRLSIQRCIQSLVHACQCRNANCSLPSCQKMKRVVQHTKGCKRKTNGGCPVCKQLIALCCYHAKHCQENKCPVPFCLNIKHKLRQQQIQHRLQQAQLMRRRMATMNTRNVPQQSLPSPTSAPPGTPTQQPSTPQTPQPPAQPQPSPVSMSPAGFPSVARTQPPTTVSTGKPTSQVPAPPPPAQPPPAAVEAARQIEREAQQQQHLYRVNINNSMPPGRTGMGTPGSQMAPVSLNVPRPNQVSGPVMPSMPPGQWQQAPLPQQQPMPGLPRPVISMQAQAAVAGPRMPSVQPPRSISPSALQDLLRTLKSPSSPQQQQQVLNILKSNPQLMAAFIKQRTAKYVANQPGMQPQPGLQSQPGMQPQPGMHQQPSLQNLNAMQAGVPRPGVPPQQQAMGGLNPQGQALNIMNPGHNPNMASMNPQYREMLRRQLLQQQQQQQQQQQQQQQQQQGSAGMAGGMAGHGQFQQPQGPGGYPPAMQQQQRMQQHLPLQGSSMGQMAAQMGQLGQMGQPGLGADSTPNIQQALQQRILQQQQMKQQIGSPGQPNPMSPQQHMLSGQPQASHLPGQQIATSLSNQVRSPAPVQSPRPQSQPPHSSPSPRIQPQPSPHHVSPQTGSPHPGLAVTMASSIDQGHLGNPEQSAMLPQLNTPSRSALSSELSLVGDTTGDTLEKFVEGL
Experiment: Inhibition of His6-tagged human CBP bromodomain (1081 to 1197 residues) expressed in Escherichia coli BL21 (DE3) incubated for 30 mins by HTRF assay
Attribute Measured: pIC50
One number for each entry, as −log10 of the molar value.

// below: answered compounds
The value of pIC50 measured for the compound `COc1ccn2c(C(C)=O)cc(C(=O)Nc3cc(F)cc(-c4cnn(C)c4)c3F)c2c1` turned out to be 7.16

The value of pIC50 measured for the compound `CC(=O)c1cc(C(=O)Nc2cc(CO)cc(-c3cnn(C4CC4)c3)c2F)c2cc(N)ccn12` turned out to be 8.53

The value of pIC50 measured for the compound `CC(=O)c1cc(C(=O)Nc2cc(CO)cc(-c3cnn(C4CC4)c3)c2F)c2cc(OC(=O)N(C)C)ccn12` turned out to be 7.67

The value of pIC50 measured for the compound CC(=O)c1cc(C(=O)Nc2cc(C(C)O)cc(-c3cnn(C4CC4)c3)c2F)c2cc(O)ccn12 (centres undefined) turned out to be 7.10

The value of pIC50 measured for the compound `COc1ccc2c(c1)c(C(=O)Nc1cc(C(=O)O)cc(-c3cnn(C)c3)c1F)cn2C(C)=O` turned out to be 6.75

The value of pIC50 measured for the compound `COc1ccn2c(C(C)=O)cc(C(=O)Nc3cc(C(=O)O)cc(-c4cnn(C)c4)c3F)c2c1` turned out to be 8.01

The value of pIC50 measured for the compound `CCC(=O)c1cc(C(=O)Nc2cc(CO)cc(-c3cnn(C)c3)c2F)c2cc(O)ccn12` turned out to be 7.11

The value of pIC50 measured for the compound `C[C@@H]1CC(=O)Nc2cccc(-c3ccc4c(c3)c(-c3cnn(C)c3)nn4C)c2N1` turned out to be 7.86

***
The value of pIC50 measured for the compound `CC(=O)c1cc(C(=O)Nc2cc(CO)cc(-c3cnn(C)c3)c2F)c2cc(N)ccn12` turned out to be 8.72

----------
Experiment: Clearance in Sprague-Dawley rat at 5 mg/kg, iv administered as single dose measured up to 24 hrs
Assay type: ADME, organism-based
Condition Details: Sprague-Dawley, in vivo
Attribute Measured: clearance (mL/min/kg)
Numbers only, in mL/min/kg.

// for each compound in input: emit clearance
1. CC(=O)c1cc(C(=O)Nc2cc(C(C)O)cc(-c3cnn(C4CC4)c3)c2F)c2cc(N)ccn12 (configuration not stated)
2. CC(=O)c1cc(C(=O)Nc2cc(CO)cc(-c3cnn(C4CC4)c3)c2F)c2cc(OC(=O)N(C)C)ccn12

Data returned:
1: 107; 2: 2.83

----------
Experiment: Half life in Sprague-Dawley rat at 2 mg/kg, iv administered as single dose measured up to 24 hrs
Format: ADME, organism-based
Condition Details: in vivo
Attribute Measured: half-life
Please don't drop the unit; write it after the number.

The value of half-life measured for the compound `CC(=O)c1cc(C(=O)Nc2cc(CO)cc(-c3cnn(C)c3)c2F)c2cc(N)ccn12` turned out to be 6.6 min

----------
Assign hepatic extraction ratio at 0.75 h, 1 µM to each entry below.
Experiment: Hepatic extraction ratio in human liver microsomes at 1 uM incubated for 45 mins in presence of NADPH by LC-MS/MS analysis
Format: ADME, Microsome
Condition Details: read-out: ERH
Answers are plain numbers.

The value of hepatic extraction ratio at 0.75 h, 1 µM measured for the compound `Cc1ncc2n1-c1ccc(Cl)cc1C(c1ccccc1F)=NC2` turned out to be 0.962

The value of hepatic extraction ratio at 0.75 h, 1 µM measured for the compound `CC(=O)c1cc(C(=O)Nc2cc(CO)cc(-c3cnn(C4CC4)c3)c2F)c2cc(OC(=O)N(C)C)ccn12` turned out to be 0.64

***
The value of hepatic extraction ratio at 0.75 h, 1 µM measured for the compound COc1ccn2c(C(C)=O)cc(C(=O)Nc3cc(C(C)O)cc(-c4cnn(C5CC5)c4)c3F)c2c1 (stereo not drawn) turned out to be 0.798

----------
Experiment: Apparent permeability across basolateral to apical side in human Caco-2 cells at 10 uM measured after 2 hrs by LC-MS/MS analysis
Type: ADME, cell-based
Attribute Measured: Papp B→A at 2 h, 10 µM (×10⁻⁶ cm/s)
Numbers only, in ×10⁻⁶ cm/s.

// below: answered compounds
The value of Papp B→A at 2 h, 10 µM measured for the compound CC(C)NCC(O)COc1cccc2ccccc12 (stereo not drawn) turned out to be 18.9

The value of Papp B→A at 2 h, 10 µM measured for the compound `CC(=O)c1cc(C(=O)Nc2cc(CO)cc(-c3cnn(C4CC4)c3)c2F)c2cc(OC(=O)N(C)C)ccn12` turned out to be 2.89

Continue with the compound presented below.
The value of Papp B→A at 2 h, 10 µM measured for the compound COc1ccn2c(C(C)=O)cc(C(=O)Nc3cc(C(C)O)cc(-c4cnn(C5CC5)c4)c3F)c2c1 (stereo not drawn) turned out to be 11.8
